Carbonic anhydrase 9 (Homo sapiens, UniProt Q16790) IC50, compiled from various sources.
measure: IC50 (µM)

- compound: "O=P(O)(O)C(Nc1ccc(Oc2ccc(Br)cc2)cc1)P(=O)(O)O"
  assay-value: 8.17
- compound: "NS(=O)(=O)c1ccc(NC(=S)NC(=O)c2ccc(Cl)cc2)cc1"
  assay-value: 0.00414

a. COc1cc(/C=C/C(=O)O)ccc1OCc1cn(-c2ccc(C)cc2)nn1
b. O=[N+]([O-])c1ccc(S(=O)(=O)Nc2ccccc2)cc1
Which is greater in IC50, the first item a or the second item b ? Record your answer as the label of the chosen record.
a

* * *

Carbonic anhydrase 9 (Homo sapiens) IC50, compiled from various sources.
measure: IC50 (nM)

Examples from the recorded data:
- compound: "COc1ccc(C(=O)NC(=S)Nc2cccc(S(N)(=O)=O)c2)cc1"
  IC50 / nM: 25.5
- compound: "Cc1ncc([N+](=O)[O-])n1CCS(N)(=O)=O"
  IC50 / nM: 643
- compound: "Cc1ccc(S(=O)(=O)Nc2ccccc2-c2ccccc2)cc1"
  IC50 / nM: 90
- compound: "COc1cc(/C=C/C(=O)O)ccc1OCc1cn(-c2ccccc2F)nn1"
  IC50 / nM: 8940
- compound: "COc1cc(O)c(/C=C\\C(=O)O)cc1[C@@H](O)CC(C)C"
  IC50 / nM: 54500
- compound: "O=P(O)(O)C(Nc1ccc(Oc2ccc(Cl)cc2)cc1)P(=O)(O)O"
  IC50 / nM: 8230
- compound: "COc1cc(/C=C/C(=O)O)ccc1OCc1cn(-c2ccccc2C)nn1"
  IC50 / nM: 3640
- compound: "COc1cc(/C=C/C(=O)O)ccc1OCc1cn(-c2ccccc2[N+](=O)[O-])nn1"
  IC50 / nM: 2440
- compound: "COc1cc(/C=C/C(=O)O)ccc1OCc1cn(-c2cccc(Cl)c2)nn1"
  IC50 / nM: 1370
- compound: "O=[N+]([O-])c1ccc(S(=O)(=O)NC(P(=O)(O)O)P(=O)(O)O)cc1"
  IC50 / nM: 78

1. O=P(O)(O)C(NS(=O)(=O)c1ccc(Br)cc1)P(=O)(O)O
2. O=P(O)(O)C(NS(=O)(=O)c1ccc(-c2ccccc2)cc1)P(=O)(O)O
Which is greater in IC50, the first item 1 or the second item 2 ? Record your answer as the label of the chosen record.
2

a. O=P(O)(O)C(NS(=O)(=O)c1ccc(-c2cccs2)cc1)P(=O)(O)O
b. COc1cc(/C=C/C(=O)O)ccc1OCc1cn(-c2cccc([N+](=O)[O-])c2)nn1
Which is greater in IC50, the first item a or the second item b ? Record your answer as the label of the chosen record.
a
(a: 601 nM, b: 24 nM)

I. COc1ccccc1C(=O)NC(=S)Nc1ccc(S(N)(=O)=O)cc1
II. COc1cc(/C=C/C(=O)O)ccc1OCc1cn(-c2ccc(F)cc2)nn1
III. NS(=O)(=O)Oc1ccc(/C=C/C(=O)C[C@@H]2O[C@H](CO)[C@@H](O)[C@H](O)[C@H]2O)cc1
Number of compounds to sort: 3. Sort criterion: IC50, ascending. Record the ranking as a list of labels in the requested order.
I, III, II
(I: 0.3 nM, III: 101 nM, II: 7640 nM)
